system: antiserum directed against peptide III; assay: Competitive radioimmunoassay with 125I-peptide III; type: binding, rabbit; conditions: read-out: concentration producing half-maximal inhibition of precipitation of 125I-peptide III
No end group written: not given here.
result_type: IC50 (nM)
One number for each entry, in nM.

Input: Short answer please: IC50, antiserum directed against peptide III, entry CHSGYVGVRCEHADLLA (cysteine pairing not given here) [Peptide III]
Output: 0.7

The measured values listed here are drawn from patent US5240912A.
